The reported numbers originate from patent US10676452B2.

Experiment: Solubility of SUL121 in 50% DMSO in saline solution
Type: physicochemical
Conditions: aqueous with cosolvent or surfactant or cyclodextrin, kinetic from dmso stock, read-out: solubility in 50% DMSO (completely soluble up to)
Readout Label: solubility

Look up solubility for this molecule: Cc1c(C)c2c(c(C)c1O)CCC(C)(C(=O)N1CCNCC1)O2 (stereo not shown) [SUL121]
≥ 12.6 mg/mL
